# TEST TARGET: human β-secretase 1 (BACE1), extracellular/catalytic domain (human) (UniProt P56817)
# Sequence (P56817 46-457 limits assumed, form in doubt): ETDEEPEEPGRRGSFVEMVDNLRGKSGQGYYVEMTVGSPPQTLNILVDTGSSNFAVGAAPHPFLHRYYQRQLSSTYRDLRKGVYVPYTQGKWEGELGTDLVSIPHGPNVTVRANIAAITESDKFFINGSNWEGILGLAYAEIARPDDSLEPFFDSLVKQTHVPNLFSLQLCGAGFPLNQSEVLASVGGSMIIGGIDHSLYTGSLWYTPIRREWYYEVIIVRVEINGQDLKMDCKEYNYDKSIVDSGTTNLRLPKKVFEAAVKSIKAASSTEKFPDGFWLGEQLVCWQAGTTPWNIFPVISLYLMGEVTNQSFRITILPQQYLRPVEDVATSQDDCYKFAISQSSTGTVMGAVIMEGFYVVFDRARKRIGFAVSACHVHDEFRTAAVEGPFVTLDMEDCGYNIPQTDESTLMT
# PROTOCOL DETAILS: FRET peptide inhibition assay; KI=IC50/(S/Km+1)
VALUE KIND: Ki (nM)
Report the figure in nM without appending any unit label.

These solved cases illustrate the format of a correct answer.
BINDER | UNITS SYMBOL | Ki
anti-BACE1 Fab B1A4 (Fab, V domains shown) VH: EVQLVESGGGLVQPGGSLRLSCAASGFNISYSSIHWVRQAPGKGLEWVAYISPSSSYTSYADSVKGRFTISADTSKNTAYLQMNSLRAEDTAVYYCARHYYVSVGSGIDYWGQGTLVTVSS VL: DIQMTQSPSSLSASVGDRVTITCRASQSVSSAVAWYQQKPGKAPKLLIYSASSLYSGVPSRFSGSRSGTDFTPTISSLQPEDFATYYCQQASASPYALITFGQGTKVEIKR | nM | 41
anti-BACE1 Fab B2B2 (Fab, V domains shown) VH: EVQLVESGGGLVQPGGSLRLSCAASGFNISSYYMHWVRQAPGKGLEWVASIYSSYGYTYYADSVKGRFTISADTSKNTAYLQMNSLRAEDTAVYYCARYWGYYAWFGSHPWAYGAFDYWGQGTLVTVSS VL: DIQMTQSPSSLSASVGDRVTITCRASQSVSSAVAWYQQKPGKAPKLLIYSASSLYSGVPSRFSGSRSGTDFTLTISSLQPEDFATYYCQQYGYYLITFGQGTKVEIKR | nM | 87

Looking for the measured Ki of anti-BACE1 Fab B2B5 (Fab, V domains shown) VH: EVQLVESGGGLVQPGGSLRLSCAASGFNIYYSYMHWVRQAPGKGLEWVASIYPYYGSTYYADSVKGRFTISADTSKNTAYLQMNSLRAEDTAVYYCARWHGYPPGYSYYSSFSSSGFDYWGQGTLVTVSS VL: DIQMTQSPSSLSASVGDRVTITCRASQSVSSAVAWYQQKPGKAPKLLIYSASSLYSGVPSRFSGSRSGTDFTPTISSLQPEDFATYYCQQSYFSYPITFGQGTKVEIKR , can you help? 77
